B1: RSPH3 (parent)
chain: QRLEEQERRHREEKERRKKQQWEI

variants of: B1; assay: protein stability index of a GFP-peptide fusion (GPS, HEK-293T) (PSI 1-6); higher = more stable; conditions: c terminus: a fixed tail appended;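 note: lentivirally expressed fusions sorted by FACS into six bins by GFP to DsRed ratio, PSI derived from sequencing read proportions per bin multiplied by bin number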
Observed Property: protein stability index
Could you keep your reply to the number by itself?

[
  {
    "Change": "E23T",
    "protein stability index": 3.96
  },
  {
    "Change": "R2V",
    "protein stability index": 4.47
  },
  {
    "Change": "E15N",
    "protein stability index": 5.12
  },
  {
    "Change": "R8N",
    "protein stability index": 3.93
  },
  {
    "Change": "R17F",
    "protein stability index": 4.41
  },
  {
    "Change": "E5S",
    "protein stability index": 4.5
  },
  {
    "Change": "E23F",
    "protein stability index": 3.42
  }
]

# input Could you share which protein stability index value was measured for `R8V` ?
# output 5.02
